Hey, just so you know, these numbers are from paper PMC6510909.

- MEASUREMENT NOTES: Plasma pharmacokinetics on Cycle 1 Day 15, noncompartmental
- Type: in vivo, human
- ASSAY CONDITIONS: human, plasma, oral, 150 mg, 150 mg MMB BID n = 1; steady state
OBSERVED PROPERTY: AUC (ng·h/mL)
Numeric answer only, unit ng·h/mL assumed.

Name the recorded AUC of the item N#CCNC(=O)c1ccc(-c2ccnc(Nc3ccc(N4CCOCC4)cc3)n2)cc1 in your answer.
1520

* * *

- MEASUREMENT NOTES: Plasma pharmacokinetics on Cycle 1 Day 15, noncompartmental
- Type: in vivo, human
- ASSAY CONDITIONS: human, plasma, oral, 200 mg, 200 mg MMB QD n = 6; steady state, plasma; median (first quarter, third quarter); read-out: T 1/2 (converted)
OBSERVED PROPERTY: half-life (h)
Express your answer in h, writing the number without its unit.

State, in one line, measured half-life of N#CCNC(=O)c1ccc(-c2ccnc(Nc3ccc(N4CCOCC4)cc3)n2)cc1
5.3
